Study system: T1, dimeric human PRLR (hPRLR.mFc; SEQ ID NO:402) (Homo sapiens, UniProt P16471)
T1 construct: dimeric (hPRLR.mFc)
T1 sequence (P16471 with tags, fused parts or gaps): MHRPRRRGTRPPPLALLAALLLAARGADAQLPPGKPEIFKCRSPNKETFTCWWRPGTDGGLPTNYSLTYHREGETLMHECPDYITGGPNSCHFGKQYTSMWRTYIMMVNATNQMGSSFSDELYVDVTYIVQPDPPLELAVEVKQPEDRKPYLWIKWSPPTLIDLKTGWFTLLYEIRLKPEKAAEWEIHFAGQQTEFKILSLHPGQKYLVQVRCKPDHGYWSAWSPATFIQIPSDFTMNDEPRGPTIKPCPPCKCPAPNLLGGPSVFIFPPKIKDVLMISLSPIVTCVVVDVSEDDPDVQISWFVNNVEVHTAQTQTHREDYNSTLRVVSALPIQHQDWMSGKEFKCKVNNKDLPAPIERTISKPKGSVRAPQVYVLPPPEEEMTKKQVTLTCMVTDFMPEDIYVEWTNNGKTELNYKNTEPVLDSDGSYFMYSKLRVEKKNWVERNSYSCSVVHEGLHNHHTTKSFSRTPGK
Method summary: Surface plasmon resonance (Biacore T200), antibody-capture format
Assay type: binding
Assay context: 25° C., analyte hPRLR.mFc
Property measured: ka

| Molecule | Result |
| --- | --- |
| H1H6792P: fully human anti-PRLR antibody, human IgG1 Fc; HCVR/LCVR SEQ ID NOs 130/138 (antibody, V domains shown) VH: EVQLVESGGGLVQPGRSLRLSCAASGFTLDDHAVHWVRQAPGKGLEWVSGISWNSVYIDYADSVKGRFTIFRDNAKNSLYLQMNSLRAEDTAFYYCARDIEGARDYWGQGTLVTVSS VL: DIQMTQSPSSLSASVGDRVTITCRASQGIRNDLGWYQQKPGKAPKRLIYAASSLQSGVPSRFSGSGYGTEFTLTISSLQPEDFAPYYCLQHNSYPLTFGGGTKVEIK | 303000 M/s |
| H1H6790P: fully human anti-PRLR antibody, human IgG1 Fc; HCVR/LCVR SEQ ID NOs 114/122 (antibody, V domains shown) VH: EVQLVESGGGLVQPGGSLRLSCAASGFTFSSYAMTWVRQAPGKGLEWVSAITGSVGNTYYADSVKGRFTISRDNSKNTLYLQMNSLGAEDTAEYYCAKGAGMTTNWYLDLWGRGTLVTVSS VL: DIVMTQSPDSLAVSLGARATINCKSSQSVLYSSNNQNYLTWYQQKPGQPPKLLIKWASTRESGVPDRFSGSGSGTDFTLTISSLQAEDVAVYYCQQYASSPYTFGQGTKLEIK | 542000 M/s |
| H1H6959N2: anti-PRLR antibody, human IgG1 Fc form of H2M6959N2 of Table 1; HCVR/LCVR SEQ ID NOs 306/314 (antibody, V domains shown) VH: EVQLVESGGGLVQPGRSLRLSCAASGFTFDDYAMHWVRQAPGKGLEWVSGISWHSGIIGYADSVKGRFTISRDNAKNSLYLQMNSLRTEDAALYYCAKIGSYFYFDSWGQGTLVTVSS VL: EIVLTQSPGTLSLSPGERATLSCRASQSVSSNYLAWYQQKPGQAPRLLIYGASSRATGIPDRFSGSGSGTDFTLTISRLEPEDFAVYYCQQFGSSGYTFGQGTNLEIK | 359000 M/s |
